Source: patent EP0326331B1

Reported pest or weed control at 400 ppm values for a set of compounds
Test system: Erysiphe graminis tritici (powdery mildew)
Test: Test 1 greenhouse foliar spray screen, powdery mildew on wheat
Format: in vivo
Details: Blumeria graminis, foliar, Test 1, foliar spray on wheat; disease control rating at 400 ppm / 100 ppm; read-out: POWD MDEW

Example entries begin here.
- COMPOUND: "c1ccc(CCCc2ccnc3ccccc23)cc1"
  pest or weed control at 400 ppm: "90 to 100%"
- COMPOUND: "Clc1ccccc1CCOc1ccnc2c(Cl)cccc12"
  pest or weed control at 400 ppm: "90 to 100%"
- COMPOUND: "Fc1cccc2c(OCCc3ccccc3C(F)(F)F)ccnc12"
  pest or weed control at 400 ppm: "90 to 100%"
- COMPOUND: "Fc1ccc(CCOc2ccnc3c(Cl)cccc23)cc1"
  pest or weed control at 400 ppm: "0 to 19%"
- COMPOUND: "Fc1cccc2c(OCCc3ccccc3-c3ccccc3)ccnc12"
  pest or weed control at 400 ppm: "90 to 100%"

Measured pest or weed control at 400 ppm, "C1=C(CCNc2ccc3nccc(NCCC4=CCCCC4)c3c2)CCCC1" : 0 to 19%

Measured pest or weed control at 400 ppm, "Fc1cccc2c(NCCc3ccc(OCc4ccccc4)cc3)ccnc12" : 90 to 100%

Measured pest or weed control at 400 ppm, "Fc1ccc2c(OCCc3ccc(Cl)cc3)ccnc2c1" : 20 to 89%

Measured pest or weed control at 400 ppm, Cc1ccc(CCOc2ccnc3ccccc23)cc1 [Example 210, 4-[2-(4-methylphenyl)ethoxy]quinoline] : 90 to 100%

---

Reported pest or weed control at 400 ppm values for a set of compounds
Test system: Erysiphe graminis tritici (powdery mildew)
Assay: Test 1 greenhouse foliar spray screen, powdery mildew on wheat
Format: in vivo
Conditions: Blumeria graminis, foliar, Test 1, foliar spray on wheat; disease control rating at 400 ppm / 100 ppm; read-out: POWD MDEW

Example entries begin here.
- COMPOUND: "[O-][S+](CCc1ccccc1)c1ccnc2c(F)cccc12 (centres unmarked)"
  pest or weed control at 400 ppm: "0 to 19%"
- COMPOUND: "COc1ccc(CCOc2ccnc3c(F)cccc23)cc1"
  pest or weed control at 400 ppm: "90 to 100%"
- COMPOUND: "CC(COc1ccnc2c(F)cccc12)c1ccccc1 (centres unmarked)"
  pest or weed control at 400 ppm: "90 to 100%"
- COMPOUND: "c1ccc(CCOc2ccnc3ccccc23)cc1"
  pest or weed control at 400 ppm: "90 to 100%"
- COMPOUND: "Fc1cccc2c(OCCc3ccc(Br)cc3)ccnc12"
  pest or weed control at 400 ppm: "90 to 100%"
- COMPOUND: "COc1ccc2nc(C)cc(NCCc3cccc(Oc4ccccc4)c3)c2c1"
  pest or weed control at 400 ppm: "0 to 19%"
- COMPOUND: "COC(C)CCOc1ccnc2c(F)cccc12 (centres unmarked) [Example 266, 8-fluoro-4-[3-methoxybutoxy]quinoline]"
  pest or weed control at 400 ppm: "0 to 19%"
- COMPOUND: "FC(F)(F)c1ccc2c(CCCc3ccccc3)ccnc2c1"
  pest or weed control at 400 ppm: "90 to 100%"
- COMPOUND: "Fc1cccc2c(CCCc3ccc(-c4ccccc4)cc3)ccnc12"
  pest or weed control at 400 ppm: "90 to 100%"
- COMPOUND: "Fc1cccc2c(OCCc3cccc(Oc4ccccc4)c3)ccnc12"
  pest or weed control at 400 ppm: "90 to 100%"

For "CCCCOc1ccc(CCOc2ccnc3c(F)cccc23)cc1" on Erysiphe graminis tritici (powdery mildew), measured pest or weed control at 400 ppm was 90 to 100%

For CC(CNc1ccnc2cc(Cl)ccc12)c1ccc(Cl)cc1 (centres unmarked) on Erysiphe graminis tritici (powdery mildew), measured pest or weed control at 400 ppm was 20 to 89%

For "Fc1cccc2c(OCCc3ccc(Cl)cc3)ccnc12" on Erysiphe graminis tritici (powdery mildew), measured pest or weed control at 400 ppm was 90 to 100%

For "Fc1cccc2c(OCCc3ccccc3)ccnc12" on Erysiphe graminis tritici (powdery mildew), measured pest or weed control at 400 ppm was 90 to 100%

For "Clc1cccc2c(OCCc3ccccc3)ccnc12" on Erysiphe graminis tritici (powdery mildew), measured pest or weed control at 400 ppm was 90 to 100%

For "Fc1cccc2c(OCCc3ccccc3Cl)ccnc12" on Erysiphe graminis tritici (powdery mildew), measured pest or weed control at 400 ppm was 90 to 100%

For Clc1ccc(CCOc2ccnc3ccccc23)cc1 [Example 211, 4-[2-(4-chlorophenyl)ethoxy]quinoline] on Erysiphe graminis tritici (powdery mildew), measured pest or weed control at 400 ppm was 90 to 100%

---

Reported pest or weed control at 400 ppm values for a set of molecules
Test system: Erysiphe graminis tritici (powdery mildew)
Assay: Test 1 greenhouse foliar spray screen, powdery mildew on wheat
Type: in vivo
Conditions: Blumeria graminis, foliar, Test 1, foliar spray on wheat; disease control rating at 400 ppm / 100 ppm; read-out: POWD MDEW

Example entries begin here.
- MOLECULE: "CC(C)(C)c1ccc(CCOc2ccnc3c(F)cccc23)cc1 [Example 221]"
  ATTRIBUTE MEASURED: "pest or weed control at 400 ppm"
  RESULT: "20 to 89%"
- MOLECULE: "Fc1cccc2c(OCCc3cccc(Cl)c3)ccnc12 [Example 201]"
  ATTRIBUTE MEASURED: "pest or weed control at 400 ppm"
  RESULT: "90 to 100%"
- MOLECULE: "Fc1cccc2c(OCCCCOc3ccccc3)ccnc12 [Example 272, 8-fluoro-4-(4-phenoxybutoxy)quinoline]"
  ATTRIBUTE MEASURED: "pest or weed control at 400 ppm"
  RESULT: "0 to 19%"

Measured pest or weed control at 400 ppm, CC(=O)Oc1ccc(CCN(C(C)=O)c2ccnc3c(F)cccc23)cc1 [Example 273] : 20 to 89%

Measured pest or weed control at 400 ppm, COc1ccccc1CCOc1ccnc2ccccc12 [Example 229, 4-[2-(2-methoxyphenyl)ethoxy]quinoline] : 20 to 89%

Measured pest or weed control at 400 ppm, Fc1ccc(CCOc2ccnc3cc(Cl)ccc23)c(F)c1 [Example 276] : 90 to 100%

Measured pest or weed control at 400 ppm, Fc1cccc2c(CCCc3ccc(Cl)cc3)ccnc12 [Example 261] : 20 to 89%

---

Tested on: Twospotted spider mites (Tetranychus urticae Koch)
Assay: Mite/insect screen, SM
Type: in vivo
Details: Tetranychus urticae, foliar, percent mortality; rate 400 ppm, foliar spray on squash; read-out: SM RESULTS %
ATTRIBUTE MEASURED: mortality at 400 ppm (%)
Number in %, nothing else.

Example entries begin here.
- COMPOUND: "Clc1ccc(CCOc2ccnc3c(Br)cccc23)cc1"
  UNITS: "%"
  RECORDED NUMBER: 100
- COMPOUND: "Fc1ccccc1CCOc1ccnc2c(F)cccc12"
  UNITS: "%"
  RECORDED NUMBER: 0
- COMPOUND: "Fc1cccc2c(NCCCCc3ccccc3)ccnc12"
  UNITS: "%"
  RECORDED NUMBER: 80
- COMPOUND: "Fc1cccc2c(OCCCCOc3ccccc3)ccnc12"
  UNITS: "%"
  RECORDED NUMBER: 20
- COMPOUND: "CC(C)c1ccc(CCCc2ccnc3c(F)cccc23)cc1"
  UNITS: "%"
  RECORDED NUMBER: 0

Turning to the following compound.
Measured mortality at 400 ppm, "Clc1cccc2c(NCCCCc3ccccc3)ccnc12" : 0

---

Reported mortality at 200 ppm values for a set of molecules
Test system: Twospotted spider mites (Tetranychus urticae Koch)
Experiment: Mite/insect screen, SM
Assay type: in vivo
Details: Tetranychus urticae, foliar, percent mortality; rate 200 ppm, foliar spray on squash; read-out: SM RESULTS %
Provide the measurement as a number trailed by its unit.

Measured mortality at 200 ppm, [O-][S+](CCc1ccccc1)c1ccnc2c(F)cccc12 (stereo not shown) : 0%

Measured mortality at 200 ppm, CC(Cc1ccccc1)Oc1ccnc2ccccc12 (stereo not shown) : 0%

Measured mortality at 200 ppm, "Fc1cccc2c(OCCCCOc3ccccc3)ccnc12" : 0%

Measured mortality at 200 ppm, Clc1ccc(CCOc2ccnc3ccccc23)cc1 [Example 211, 4-[2-(4-chlorophenyl)ethoxy]quinoline] : 10%

---

System: melon aphids (Aphis gossypii Glover)
Assay: Mite/insect screen, MA
Type: in vivo
Details: Aphis gossypii, percent mortality; SAW, SM & MA RATE 400 PPM; read-out: MA RESULTS %
ATTRIBUTE MEASURED: mortality at 400 ppm (%)
Number in %, nothing else.

Example entries begin here.
- COMPOUND STRING: "Clc1ccc(CCNc2ccnc3cc(Cl)cc(Cl)c23)cc1"
  UNITS: "%"
  mortality at 400 ppm: 0
- COMPOUND STRING: "CC(=O)N(CCc1ccc(Cl)cc1)c1ccnc2ccc(F)cc12"
  UNITS: "%"
  mortality at 400 ppm: 0
- COMPOUND STRING: "Cc1ccc2nccc(NCCc3ccc(Cl)cc3Cl)c2c1"
  UNITS: "%"
  mortality at 400 ppm: 0
- COMPOUND STRING: "Fc1cccc2c(NCCCc3ccc(Cl)cc3)ccnc12"
  UNITS: "%"
  mortality at 400 ppm: 0

Turning to the following molecule.
Measured mortality at 400 ppm, "Cc1ccc(C)c2c(NCCc3ccc(Cl)cc3)ccnc12" : 0
